assay-comment: MMV: Cytotoxicity against human fibroblasts (MRC-5) cells.
condition-label: MRC-5 cells (human fibroblasts)
pIC50: −log10 of the molar value.
parameter: pIC50

Study these solved cases before continuing.
compound | pIC50
CCOC(=O)c1cnc2ccc(OC)cc2c1NCc1ccccc1 | < 4.49
O=c1cc(NC2CCN(CCCc3ccccc3)CC2)c2cc(Cl)ccc2o1 | < 4.49
OC(CNCc1ccccc1)Cn1c2ccccc2c2ccccc21 (centres undefined) | 4.79
COc1cccc(-c2nn(C)c3sc(C(=O)NCCN4CCN(c5ccccc5F)CC4)cc23)c1 | < 4.49
COc1ccc(-c2cc(=O)oc3c4c(ccc23)OCN(Cc2ccc(F)cc2)C4)cc1 | < 4.49

Exercise: I have this compound here, `COc1cccc(C(=O)Nc2ccc(-c3nc4ccccc4[nH]3)cc2)c1` , and I need its recorded pIC50.
Key: < 4.49

Exercise: I have this compound here, `CN(C)CCCNc1c2ccccc2nc2ccccc12` , and I need its recorded pIC50.
Key: 5.54

Exercise: I have this compound here, `CC1=C(CC(=O)c2cccc([N+](=O)[O-])c2)C(=O)c2ccccc2C1=O` , and I need its recorded pIC50.
Key: < 4.49

Exercise: I have this compound here, `CC(=O)Nc1nnc(SCc2c(C)cc(C(C)(C)C)cc2C)s1` , and I need its recorded pIC50.
Key: < 4.49

Exercise: I have this compound here, `CCOC(=O)c1cnc2ccc(Cl)cc2c1NCCCN(C)C` , and I need its recorded pIC50.
Key: < 4.49

Exercise: I have this compound here, `O=C(NC1CCN(Cc2ccccc2)CC1)c1cc(C(=O)NC2CCN(Cc3ccccc3)CC2)cc(C(=O)NC2CCN(Cc3ccccc3)CC2)c1` , and I need its recorded pIC50.
Key: < 4.49

Exercise: I have this compound here, CCCCCCc1cc(O)c2c3c(c(=O)oc2c1)CCC(C)C3 (centres undefined) , and I need its recorded pIC50.
Key: < 4.49

Exercise: I have this compound here, `Cc1cc(Nc2ccc(C)c(Cl)c2)n2nc(C(F)(F)F)nc2n1` , and I need its recorded pIC50.
Key: < 4.49

Exercise: I have this compound here, COc1ccc2c(c1)C1(Nc3ccccc3-c3nc4ccccc4n31)C(=O)N2 (centres undefined) , and I need its recorded pIC50.
Key: < 4.49

Exercise: I have this compound here, OC1=C2C(=Nc3ccccc3SC2c2ccccc2)c2ccccc21 (centres undefined) , and I need its recorded pIC50.
Key: 4.81

Exercise: I have this compound here, `O=c1nc(C=Cc2ccc(Br)cc2)oc2ccccc12` , and I need its recorded pIC50.
Key: 5.40

Exercise: I have this compound here, `CCOC(=O)c1cnc2c(C)cccc2c1Nc1ccc(C(C)=O)cc1` , and I need its recorded pIC50.
Key: < 4.49

Exercise: I have this compound here, `CC1CCN(Cc2ccc(NC(=O)c3cc4ccc5cccnc5c4[nH]3)cc2)CC1` , and I need its recorded pIC50.
Key: 5.84

Exercise: I have this compound here, `CN(N=O)C1=C(NC2CCCCC2)C(=O)c2ccccc2C1=O` , and I need its recorded pIC50.
Key: < 4.49

Exercise: I have this compound here, `COc1ccc2nc(C)cc(Nc3ccccc3O)c2c1` , and I need its recorded pIC50.
Key: < 4.49

###

Test system: Leishmania infantum
assay-comment: MMV: Inhibition of Leishmania infantum (MHOM/MA/BE/67) in vitro.
Assay type: functional, organism-based
pIC50 values for the molecules below.
Please express pIC50 as -log10 of the molar concentration.

Study these solved cases before continuing.
item-smiles | val
CCN(CC)S(=O)(=O)c1ccc(-c2csc(Nc3ccc(C)c(C)c3)n2)cc1 | 4.79
O=C(NC1CCN(Cc2ccccc2)CC1)c1cc(C(=O)NC2CCN(Cc3ccccc3)CC2)cc(C(=O)NC2CCN(Cc3ccccc3)CC2)c1 | 5.39
Cc1ccccc1OCCSc1nc2ccc(NC(=O)c3cccs3)cc2s1 | 4.76

Now take the following molecule into account.
Exercise: I have this molecule here, `CCOc1cccc(C(=O)Nc2ccc(-c3nc4ccccc4[nH]3)cc2)c1` , and I need its recorded pIC50.
Key: 4.79

###

Tested on: Leishmania infantum
assay-comment: MMV: Inhibition of Leishmania infantum (MHOM/MA/BE/67) in vitro.
Format: functional, organism-based
parameter: IC50

Study these solved cases before continuing.
molecule | target-entity | IC50
Cc1cccc(N2C(=O)C3C(C2=O)C2(c4ccccc4)C(=O)C3(c3ccccc3)C(c3ccc4c(c3)OCO4)=C2c2ccc3c(c2)OCO3)c1 (stereo not given) | Leishmania infantum | > 32 µM
CN(C)c1ccc(C(O)(c2ccc(N(C)C)cc2)c2ccc(N(C)C)cc2)cc1 | Leishmania infantum | < 0.125 µM
Cc1cc(Nc2ccc(Cl)cc2)n2nc(C(F)(F)F)nc2n1 | Leishmania infantum | > 32 µM

Exercise: I have this molecule here, `CC(=O)c1sc(NC(=O)Nc2ccc(C)cc2C)nc1C` , and I need its recorded IC50.
Key: > 32 µM

Exercise: I have this molecule here, `FC(F)(F)c1cccc(Nc2nc(-c3ccccc3)nc3ncccc23)c1` , and I need its recorded IC50.
Key: > 32 µM

Exercise: I have this molecule here, `CN(N=O)C1=C(NC2CCCCC2)C(=O)c2ccccc2C1=O` , and I need its recorded IC50.
Key: > 32 µM

Exercise: I have this molecule here, `Cc1ccc(CSCc2ccc(C(=O)NC3CC3)o2)cc1` , and I need its recorded IC50.
Key: > 32 µM

Exercise: I have this molecule here, COc1ccc(NC(=O)C2c3ccccc3C(=O)N(CC(C)C)C2c2cccs2)cc1 (stereo not given) , and I need its recorded IC50.
Key: > 32 µM

###

Tested on: Leishmania infantum
assay-comment: MMV: Inhibition of Leishmania infantum (MHOM/MA/BE/67) in vitro.
Type: functional, organism-based
pIC50: −log10 of the molar value.
pIC50 values for the compounds below.

Study these solved cases before continuing.
compound | pIC50
Nc1ccc(-c2nc3cc(Cc4ccc5[nH]c(-c6ccc(N)cc6)nc5c4)ccc3[nH]2)cc1 | < 4.49
COc1ccc2c(c1OC)C(=O)N1c3ccccc3N=C(c3ccc(C)cc3)CC21 (stereo unspecified) | < 4.49
COc1ccc2nc(C)cc(Nc3ccccc3O)c2c1 | < 4.49
O=C(NC1CCN(Cc2ccccc2)CC1)c1cc(-c2ccncc2)nc2ccc(Cl)cc12 | 4.79
COc1ccc(Br)cc1C1Nc2ccc3ccccc3c2C2=C1C(=O)CC(c1ccccc1)C2 (stereo unspecified) | < 4.49

Now take the following compound into account.
Exercise: I have this compound here, `Cc1cccc(Nc2nc(N)c3ccccc3n2)c1` , and I need its recorded pIC50.
Key: 5.36

###

pIC50 values for the molecules below.
assay-comment: MMV: Cytotoxicity against human fibroblasts (MRC-5) cells.
condition-label: MRC-5 cells (human fibroblasts)
pIC50: −log10 of the molar value.

Study these solved cases before continuing.
molecule | pIC50
CCOc1c(Cl)cc(CNCC(O)c2ccccc2)cc1OC (stereo not drawn) | < 4.49
COc1cc2cc(C(=O)Nc3ccccc3)c(N)nc2cc1OC | < 4.49

Now take the following molecule into account.
Exercise: I have this molecule here, `CCN(CC)CCNc1ncnc2c1[nH]c1ccc(Cl)cc12` , and I need its recorded pIC50.
Key: < 4.49

###

assay-comment: MMV: Cytotoxicity against human fibroblasts (MRC-5) cells.
condition-label: MRC-5 cells (human fibroblasts)
pIC50: −log10 of the molar value.
parameter: pIC50

compound | parameter | val
CCCCC(O)(c1ccc(Cl)cc1)C(CN1CCOCC1)c1ccc(Cl)cc1 (centres undefined) | pIC50 | < 4.49
CC(Oc1ccc(NC(=O)c2cccs2)cc1)C(=O)c1ccc(Cl)cc1 (centres undefined) | pIC50 | < 4.49
COc1cccc(O)c1CN1CCC2(CCCN(Cc3ccc(F)cc3)C2)C1 (centres undefined) | pIC50 | < 4.49

Now take the following compound into account.
Exercise: I have this compound here, `COc1cccc(Cn2c(Oc3ccccc3)nc3c2c(=O)n(C)c(=O)n3C)c1` , and I need its recorded pIC50.
Key: < 4.49

###

System: Leishmania infantum
assay-comment: MMV: Inhibition of Leishmania infantum (MHOM/MA/BE/67) in vitro.
Format: functional, organism-based
pIC50 values for the compounds below.
Please express pIC50 as -log10 of the molar concentration.

Study these solved cases before continuing.
compound | pIC50
Cc1sc(NC(=O)c2ccccc2)c(C(c2cccs2)N2CCN(c3ccccc3)CC2)c1C (configuration not stated) | 4.90
O=C(Cc1ccccc1)NC(c1ccc(Cl)cc1)c1c(O)ccc2ccccc12 (configuration not stated) | 5.32
O=C(NCCCN1CCC(N2CCCCC2)CC1)C1=Cc2cc(Br)ccc2OC1 | 5.39

Exercise: I have this compound here, `COc1ccc(-c2cc(=O)oc3c4c(ccc23)OCN(Cc2ccc(F)cc2)C4)cc1` , and I need its recorded pIC50.
Key: 5.27

Exercise: I have this compound here, `CCN(CC)CCNc1ccnc2cc3ccccc3cc12` , and I need its recorded pIC50.
Key: 5.36

Exercise: I have this compound here, `O=C(Nc1ccc(Cl)c(Cl)c1)Nc1ccc(Cl)c(Cl)c1` , and I need its recorded pIC50.
Key: 4.98

Exercise: I have this compound here, CC(C)(C)c1ccc(C2CC3=Nc4ccccc4N(C(=O)c4ccccc4Cl)C(c4ccc(F)cc4)C3=C(O)C2)cc1 (configuration not stated) , and I need its recorded pIC50.
Key: 4.76

Exercise: I have this compound here, CCC1(C)CC(CCNCc2ccccc2O)(c2ccc(C)cc2)CCO1 (configuration not stated) , and I need its recorded pIC50.
Key: 5.36

Exercise: I have this compound here, O=C(CCc1ccccc1)c1ccccc1OCC(O)CN1CCCCC1 (configuration not stated) , and I need its recorded pIC50.
Key: 4.76

Exercise: I have this compound here, COC(=O)c1ccc(Cl)c2c1C1C=CCC1C(c1cccc3ccccc13)N2 (configuration not stated) , and I need its recorded pIC50.
Key: 4.76

The measured values listed here are drawn from ChEMBL document CHEMBL2028040.
